- Test system: A549
- test description: Cytotoxicity against human A549 cells assessed as growth inhibition after 48 hrs by MTT assay
- Type: functional, cell-based
- conditions used: A549, 48 h
pIC50: −log10 of the molar value.
Provide the recorded pIC50 for the entries that follow.

Query string: I am curious: what pIC50 value has been reported for Cc1ccc(N(C)C2N3Cc4cc(Br)ccc4N2Cc2cc(Br)ccc23)cc1 ?
Result string: < 4.00

Query string: And Ic1ccc2c(c1)CN1c3ccc(I)cc3CN2C1N1CCCCC1 ?
Result string: < 4.00

Query string: And COc1ccc2c(c1)CN1CN2Cc2cc(OC)ccc21 ?
Result string: < 4.00

Query string: And COc1ccc2c(c1)CN1c3ccc(OC)cc3CN2C1N(C)c1ccc(C)cc1 ?
Result string: < 4.00

Query string: And CC(C)c1ccc2c(c1)CN1c3ccc(C(C)C)cc3CN2C1N(C)C ?
Result string: < 4.00

Query string: And Cc1ccc2c(c1)CN1c3ccc(C)cc3CN2C1N1CCCCC1 ?
Result string: < 4.00

Query string: And Cc1ccc2c(c1)CN1c3ccc(C)cc3CN2C1N(C)C ?
Result string: < 4.00

Query string: And COc1ccc2c(c1)CN1c3ccc(OC)cc3CN2C1N(C)C ?
Result string: < 4.00

Query string: And CN(C)C1N2Cc3cc(Br)ccc3N1Cc1cc(Br)ccc12 ?
Result string: < 4.00

Query string: And CN(C)C1N2Cc3ccccc3N1Cc1ccccc12 ?
Result string: < 4.00

Query string: And COc1cccc2c1C(=O)c1c(O)c3c(c(O)c1C2=O)C[C@@](O)(C(=O)CO)C[C@@H]3O[C@H]1C[C@H](N)[C@H](O)[C@H](C)O1 ?
Result string: 5.09

Query string: And Cc1ccc2c(c1)CN1c3ccc(C)cc3CN2C1N1CCOCC1 ?
Result string: < 4.00

Query string: And Ic1ccc2c(c1)CN1c3ccc(I)cc3CN2C1N1CCOCC1 ?
Result string: < 4.00

Query string: And CN(c1ccccc1)C1N2Cc3cc(Br)ccc3N1Cc1cc(Br)ccc12 ?
Result string: < 4.00

Query string: And Brc1ccc2c(c1)CN1c3ccc(Br)cc3CN2C1N1CCCCC1 ?
Result string: < 4.00

Query string: And Cc1ccc2c(c1)CN1c3ccc(C)cc3CN2C1N(C)c1ccccc1 ?
Result string: < 4.00

Query string: And COc1cc2c(cc1OC)N1Cc3cc(OC)c(OC)cc3N(C2)C1N(C)C ?
Result string: < 4.00

Query string: And COc1cc2c(cc1OC)N1Cc3cc(OC)c(OC)cc3N(C2)C1N(C)c1ccccc1 ?
Result string: < 4.00

Values compiled from ChEMBL document CHEMBL3351670.
